Biological target: SARS-CoV2 Mpro (Severe acute respiratory syndrome coronavirus 2, UniProt P0DTD1)
Reported IC50 values are given for each entry in this list.
result-type: IC50

compound	result
CC1(C)C[C@@H](C[C@@H](C#N)NC(=O)[C@@H]2[C@@H]3[C@H](CN2C(=O)[C@@H](NC(=O)C(F)(F)F)C(C)(C)C)C3(C)C)C(=O)N1 (single isomer, unassigned) [3075 (Isomer 1)]	< 2000 nM
CC(C)(C)C[C@H](NC(=O)[C@@H](NC(=O)C(F)(F)F)C(C)(C)C)C(=O)N[C@H](C#N)C[C@@H]1CCCNC1=O	< 2000 nM
CC(C)(C)C[C@H](NC(=O)[C@@H](NC(=O)C(F)(F)F)C(C)(C)C)C(=O)N[C@H](C#N)C[C@@H]1CC(C)(C)NC1=O	< 2000 nM
